Target: Orexin/Hypocretin receptor type 1 (Homo sapiens, UniProt O43613)
Sequence (O43613 whole entry): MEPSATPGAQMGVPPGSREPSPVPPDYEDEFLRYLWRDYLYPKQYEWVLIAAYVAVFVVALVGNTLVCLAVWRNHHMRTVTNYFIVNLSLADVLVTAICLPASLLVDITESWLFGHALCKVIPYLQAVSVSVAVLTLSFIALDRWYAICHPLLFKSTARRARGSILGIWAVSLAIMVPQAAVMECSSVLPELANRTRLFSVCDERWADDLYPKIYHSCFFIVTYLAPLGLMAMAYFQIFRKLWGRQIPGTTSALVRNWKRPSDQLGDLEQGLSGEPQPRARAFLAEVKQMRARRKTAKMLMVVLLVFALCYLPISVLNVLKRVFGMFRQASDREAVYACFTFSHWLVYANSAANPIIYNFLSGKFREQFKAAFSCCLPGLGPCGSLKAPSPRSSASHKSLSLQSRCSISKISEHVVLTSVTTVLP
Experiment: Antagonist activity at human OX1R expressed in CHOK1 cells assessed as inhibition of orexin A-induced intracellular Ca2+ release preincubated for 15 mins followed by orexin A addition by Fura 2-AM dye based fluorescence assay
pIC50: −log10 of the molar value.

{"smilesRecord": "CN(C(=O)/C=C/c1ccoc1)[C@@H]1CC[C@@]2(O)[C@H]3Cc4cccc5c4[C@@]2(CCN3S(=O)(=O)c2ccccc2)[C@H]1O5", "experimentalTarget": "Orexin/Hypocretin receptor type 1 (Homo sapiens, UniProt O43613)", "pIC50": 5.72}

* * *

Molecular target: UniProtKB O43614
Sequence (O43614 whole entry): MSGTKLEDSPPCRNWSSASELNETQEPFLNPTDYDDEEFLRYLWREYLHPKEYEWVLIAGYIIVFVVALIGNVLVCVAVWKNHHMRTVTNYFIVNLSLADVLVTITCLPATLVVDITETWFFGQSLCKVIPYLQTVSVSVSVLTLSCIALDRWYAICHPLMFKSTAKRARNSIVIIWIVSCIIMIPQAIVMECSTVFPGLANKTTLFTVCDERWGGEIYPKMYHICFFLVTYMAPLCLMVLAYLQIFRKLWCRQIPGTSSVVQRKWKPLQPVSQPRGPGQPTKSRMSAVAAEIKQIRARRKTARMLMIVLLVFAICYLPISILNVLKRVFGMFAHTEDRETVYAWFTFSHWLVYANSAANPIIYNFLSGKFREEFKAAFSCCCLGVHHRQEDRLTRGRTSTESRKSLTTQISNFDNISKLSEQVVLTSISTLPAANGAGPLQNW
Experiment: Antagonist activity at human OX2R expressed in CHOK1 cells assessed as inhibition of orexin A-induced intracellular Ca2+ release preincubated for 15 mins followed by orexin A addition by Fura 2-AM dye based fluorescence assay
pKi: −log10 of the molar value.
quantityMeasured: pKi

{"smilesRecord": "COc1ccc2c(c1)[C@]13CCN(S(=O)(=O)c4ccccc4)[C@H](C2)[C@]1(O)CC[C@H](N(C)C(=O)/C=C/c1ccoc1)C3", "quantityMeasured": "pKi", "measuredResult": 6.53}
